Test system: OVCAR-3 ovarian
PROCEDURE_DETAILS: NCI tumour cell line growth inhibition, 48 h
This section presents compounds with their documented TGI values.

COMPOUND: COCOC1/C=C/CCCCC2=C(C)C=C(C1)O2 (stereo not given)
TGI: > 100 µM
//
COMPOUND: CCOC(=O)CNC(=O)C(CSCc1ccc(Br)cc1)NC(=O)CCC(N)C(=O)OCC (stereo not given)
TGI: > 50 µM
//
COMPOUND: CN(C(=O)C12C3C4C1C1C2C3C41C(=O)C(C)(C)C)C(C)(C)C (stereo not given)
TGI: > 100 µM
//
COMPOUND: N#CC(C(=N/O)/C(=N/O)C(C#N)c1ccc(Cl)cc1)c1ccc(Cl)cc1 (stereo not given)
TGI: > 100 µM
//
COMPOUND: OCCC1(O)CCC(O)CC1 (stereo not given)
TGI: > 100 µM

* * *

System: RPMI-8226 leukemia
PROCEDURE_DETAILS: NCI tumour cell line growth inhibition, 48 h

COMPOUND: OCC1CCCCCCCCCCC12SCCCS2 (stereo not drawn)
TGI: > 100 µM

COMPOUND: Cc1c(-c2nc3ccccc3[nH]2)c(=O)n(-c2ccccc2)n1C
TGI: > 100 µM

COMPOUND: COc1ccc2ccc3c(c2c1)CN1CCc2cc(OC)c(OC)cc2C1C3 (stereo not drawn)
TGI: > 100 µM

COMPOUND: OCCC1(O)CCC(O)CC1 (stereo not drawn)
TGI: > 100 µM

COMPOUND: NCC1CCN(c2nc3ccccc3c3c2CCCC3)CC1
TGI: 6.3 µM

COMPOUND: COc1cc2c(cc1OC)C1=Cc3cc(OC)c(OC)cc3C(C)N1C=C2 (stereo not drawn)
TGI: > 100 µM

COMPOUND: O=c1nc(N2CCN(c3ccccc3)CC2)ccn1C1OC(CO)C(O)C1O (stereo not drawn)
TGI: > 100 µM

COMPOUND: Cc1ccc(C(=O)Nc2ccc(CP(=O)(O)O)cc2CP(=O)(O)O)cc1NC(=O)c1cccc(N)c1
TGI: > 100 µM

COMPOUND: COc1ccc(CNc2cc(OC)c(OC)c(OC)c2)cc1
TGI: 83.1 µM

COMPOUND: Oc1ccc(/C=C/c2cc(O)cc(O)c2)cc1
TGI: > 100 µM

COMPOUND: CCN1c2ccccc2-n2c(C)nnc2-c2c1n[nH]c2-c1ccccc1
TGI: 82.3 µM

COMPOUND: CC(C)=CCOC(=O)C(C)=[N+]=[N-]
TGI: > 100 µM

COMPOUND: CSc1ccc(C2=NN(C(C)=O)C(c3cc(C)cs3)C2)cc1 (stereo not drawn)
TGI: > 100 µM

* * *

Tested on: HCT-116 colon
PROCEDURE_DETAILS: NCI tumour cell line growth inhibition, 48 h; in the data active = GI50 below about 0.43 µM; inactive = the rest
Outcomes: active, inactive

MOLECULE: N#C/C(=C1C=C/C(=N/O)C(Br)=C/1)c1ccccc1
CATEGORY: active
//
MOLECULE: O=C(CN1CCOCC1)Nc1ccc(Cn2nnc3c2C(=O)c2nnn(Cc4ccc(NC(=O)CN5CCOCC5)cc4)c2C3=O)cc1
CATEGORY: active
//
MOLECULE: Cc1c(C(=O)N/N=C/c2ccc(Cl)cc2)nnn1-c1ccnc2c(C(F)(F)F)cccc12
CATEGORY: inactive
//
MOLECULE: Cc1ccc(S(=O)(=O)N(CCOc2ccc(/C(N)=N/Cl)cc2)CCOc2ccc(/C(N)=N\Cl)cc2)cc1
CATEGORY: inactive
//
MOLECULE: C=C(CN1CCc2ccccc2C1)c1ccc(C(=O)Nc2cnccn2)cc1
CATEGORY: inactive
//
MOLECULE: COc1ccc2[nH]c(O)c(/C=c3/cc4c(c(-c5cc(OC)c(OC)c(OC)c5)n3)=Nc3ccccc3-4)c2c1
CATEGORY: inactive
//
MOLECULE: CC1=C(C(=O)Nc2ccc3[nH]ncc3c2)C(c2ccc3ccccc3c2)CC(=O)N1 (stereo unspecified)
CATEGORY: inactive
//
MOLECULE: Cn1c(N2NC(=O)C(N=Nc3ccc(S(N)(=O)=O)cc3)C2=O)nc(-c2ccco2)c(C#N)c1=O (stereo unspecified)
CATEGORY: inactive
//
MOLECULE: CC[CH2][Pb]([CH2]CC)([CH2]CC)[O]C(=O)C(F)(F)F
CATEGORY: active
//
MOLECULE: CN1CCN(Cc2ccc(NC(=O)c3cncc(C#Cc4cnc(N)c5ccc(C#N)cc45)c3)cc2C(F)(F)F)CC1
CATEGORY: active
//
MOLECULE: CC1OC(O[C@H]2C[C@@H](O)[C@]3(CO)[C@H]4[C@H](O)C[C@]5(C)[C@@H](C6=CC(=O)OC6)CC[C@]5(O)[C@@H]4CC[C@]3(O)C2)C(O)C(O)C1O (stereo partly specified)
CATEGORY: inactive

* * *

Test system: RXF 393 renal
PROCEDURE_DETAILS: NCI tumour cell line growth inhibition, 48 h

MOLECULE: Cc1cc(N(CCC#N)CCC#N)ccc1/C=N/NC(=O)c1cc(Cl)ccc1O
TGI: > 100 µM
//
MOLECULE: COC(=O)C(=O)C(C(=O)C=C(C)C)C(=O)C(=O)Nc1cc(C(F)(F)F)ccc1Cl (stereo not given)
TGI: > 100 µM
//
MOLECULE: OCc1ccc2[n+](c1)CCC1c3ccccc3NC21 (stereo not given)
TGI: > 300 µM
//
MOLECULE: O=C(CN1c2ccccc2Sc2ccccc21)N1CCNCC1
TGI: > 100 µM
//
MOLECULE: O=C(O)CSc1nnc(COc2ccc(Cl)cc2)n1-c1ccccc1
TGI: > 100 µM

* * *

Test system: CAKI-1 renal
PROCEDURE_DETAILS: NCI tumour cell line growth inhibition, 48 h; in the data active = GI50 below about 0.43 µM; inactive = the rest
Outcomes: 1 for active, -1 for inactive

SMILES_REPR: COC(=O)c1cc2c3ccccc3[nH]c2c2ncccc12
CATEGORY: -1
--
SMILES_REPR: CN(C)CCNc1cc(-c2ccccc2)nc2ccccc12
CATEGORY: -1
--
SMILES_REPR: COc1cc(/C=C/c2cc(/C=C/c3ccc(O)c(OC)c3)n(-c3ccccc3)n2)ccc1O
CATEGORY: 1
--
SMILES_REPR: Cc1ccc(-c2c3c([nH]c(=O)c2C#N)-c2cc(F)ccc2OC3)cc1
CATEGORY: -1

* * *

System: ACHN renal
PROCEDURE_DETAILS: NCI tumour cell line growth inhibition, 48 h
This section presents compounds with their documented TGI values.

COMPOUND: Cc1ccc(CS/C(=C\c2ccc([N+](=O)[O-])cc2)C(=O)c2ccc(F)cc2)cc1
TGI: 3.1 µM

COMPOUND: Cc1ccc(S(=O)(=O)C(CC(=O)N2CCCC2)C(=O)c2ccccc2)cc1 (stereo not drawn)
TGI: > 100 µM

COMPOUND: COc1cc(-c2cc(=O)c3cc4c(cc3[nH]2)OCO4)cc(OC)c1O
TGI: > 10 µM

COMPOUND: CC1CCC2(C(=O)O)CCC3(C)C(=CCC4C5(C)CC(O)C(O)C(C)(CO)C5C(O)CC43C)C2C1C (stereo not drawn)
TGI: > 100 µM

COMPOUND: COC(=O)C(=O)C(C(=O)C=C(C)C)C(=O)C(=O)Nc1cc(C(F)(F)F)ccc1Cl (stereo not drawn)
TGI: > 100 µM

COMPOUND: N#C/C(=C/c1ccsc1)C(=O)c1ccccc1
TGI: > 100 µM

COMPOUND: NC(C(F)(F)F)(C(F)(F)F)P(=O)(Cc1ccccc1)Cc1ccccc1
TGI: > 100 µM

COMPOUND: CCOC(=O)c1csc(NC(=O)CCN(CC)CC)n1
TGI: > 100 µM

COMPOUND: COc1ccc(/C(=C2\O[C@@H]([C@H]3COC(C)(C)O3)[C@H]3OC(C)(C)O[C@@H]23)c2cc(OC)c(OC)c(OC)c2)cc1O
TGI: > 100 µM

COMPOUND: CCOC(=O)CNC(=O)C(CSCc1ccc(Br)cc1)NC(=O)CCC(N)C(=O)OCC (stereo not drawn)
TGI: > 50 µM

COMPOUND: Cn1cc2ccccc2c1-c1nc(N)nc(F)n1
TGI: > 100 µM

COMPOUND: N#Cc1ccc(C#Cc2ccccc2C#CCCCCO)cc1
TGI: 33.2 µM

COMPOUND: OCCNc1nc(NCCO)nc(Nc2ccc(C3=NN(c4cc(Cl)cc(Cl)c4)C(c4ccc(C(F)(F)F)cc4)C3)cc2)n1 (stereo not drawn)
TGI: 2.66 µM

* * *

Test system: NCI-H226 lung
PROCEDURE_DETAILS: NCI tumour cell line growth inhibition, 48 h
This section presents molecules with their documented GI50 values.
ENDPOINT: GI50

MOLECULE: O=C(NCCOCCOCCNc1cccc2c1C(=O)N(C1CCCNC1=O)C2=O)c1cc2c(o1)C(=O)c1ccccc1C2=O (stereo not drawn)
MEASUREMENT: 1780 nM
--
MOLECULE: COc1cc(OC)cc(-c2ccc(-c3ccc(C(=N)N)o3)o2)c1
MEASUREMENT: 22600 nM
--
MOLECULE: CN1CCN(Cc2ccc(NC(=O)c3cncc(C#Cc4cnc(N)c5ccc(C#N)cc45)c3)cc2C(F)(F)F)CC1
MEASUREMENT: 69.8 nM
